# system: FAMA_ACTL (Arabidopsis thaliana, UniProt Q56YJ8)
# Construct: FAMA-ACTL (306-414); GST (N, cleaved yes); made in house; host or cells: E. coli BL21
# Sequence (Q56YJ8 306-414): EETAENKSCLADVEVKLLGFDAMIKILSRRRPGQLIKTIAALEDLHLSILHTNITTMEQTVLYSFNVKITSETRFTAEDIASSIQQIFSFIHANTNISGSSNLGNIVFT
# assayOverview: ITC direct binding
# Parameters: species or system A. thaliana
readoutLabel: pKd
Conceptually, pKd converts a concentration in mol/L into minus its log10.

Requested read-out: pKd. Entry: O=C1C(c2ccccc2)=NC(NS(=O)(=O)c2ccccc2)(c2ccccc2)N1S(=O)(=O)c1ccccc1 (stereo not shown) [Stomidazolone]
3.96
